target: T1, Recombinant MBP-mutCALR Type 1 fusion protein (human); experiment: SPR, IgG captured, 1:1 fit, Exp. 1
T1 construct: custom made at Cepter; also called recombinant mutCALR protein
Examples of binders with documented koff follow.
PARAMETER_MEASURED: koff (s⁻¹)

BINDER	PARAMETER_MEASURED	ENDPOINT_RESULT
anti-mutCALR antibody clone 35 (antibody, human IgG1, lambda, V domains shown, human IgG1) VH: QVQLVQSGAEVKKPGATVKISCKVSGYSFTDYFIHWVQQAPGKGLAWVGLVDPEDGETIYAERFQGRVTITADTSTDTAYMELSSLRSEDTAVYYCATPGGILTDPDAFDIWGQGTMVTVSS VL: QSALTQPASVSGSPGQSITISCTGTSSDVGGYNYVSWYQQHPGKAPKLMIYEVSNRPSGVSNRFSGSKSGNTASLTISGLQAEDEADYYCSSYTSSSTPYVFGTGTKVTVLG	koff	0.00599
anti-mutCALR antibody clone 5 (antibody, human IgG1, lambda, V domains shown, human IgG1) VH: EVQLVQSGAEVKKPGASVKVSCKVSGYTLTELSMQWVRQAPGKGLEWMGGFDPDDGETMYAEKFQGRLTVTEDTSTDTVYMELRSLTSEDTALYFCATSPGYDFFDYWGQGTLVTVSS VL: SYVLTQPPSVSVAPGQTASITCVGTNFGSKNVHWYQQRPGQAPVLVVYDDSDRPSGIPERFSGSNSGNTATLTISRVEAGDEADYYCQVWDSSSDHLIFGGGTKLTVLG	koff	0.00405
anti-mutCALR antibody clone 22 (antibody, human IgG1, lambda, V domains shown, human IgG1) VH: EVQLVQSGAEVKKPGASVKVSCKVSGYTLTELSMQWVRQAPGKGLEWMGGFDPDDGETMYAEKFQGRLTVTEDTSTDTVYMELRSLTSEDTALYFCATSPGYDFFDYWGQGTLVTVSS VL: SYVLTQPPSVSVAPGKTARITCGGNNIGSKNVHWYQQKPGQAPVLVVYDDSDRPSGIPERFSGSNSGNTATLTINRVEAGDEADYYCQVWDSSNDLLIFGGGTKLTVLG	koff	0.00289
